These entries and their values trace back to ChEMBL document CHEMBL5316337.

Task for the reader: assign each of the following compounds its reported MIC.
# Tested on: Acinetobacter baumannii
# assay summary: Antibacterial activity against polymyxin-susceptible Acinetobacter baumannii ATCC 17978 clinical isolates assessed as reduction in bacterial growth by broth microdilution method
# Type: functional
Bridge positions count the residues as written; N and C are the ends. Square brackets hold non-standard residues; d marks the D form. Peptide text beside a SMILES is read from it. * marks the point of attachment. X1 = CC[C@H](C)CCCCC(=O)*; Dab = NCC[C@H](N)C(=O)O
One number for each entry, in µg/mL.

compound	MIC [µg/mL]
CC[C@H](C)CCCCC(=O)N[C@@H](CCN)C(=O)N[C@H](C(=O)N[C@@H](CCN)C(=O)N[C@H]1CCNC(=O)[C@H](CCCCN)NC(=O)[C@H](CCN)NC(=O)[C@H](CCN)NC(=O)[C@H](CC(C)C)NC(=O)[C@@H](Cc2ccccc2)NC(=O)[C@H](CCN)NC1=O)[C@@H](C)O	8
CC[C@H](C)CCCCC(=O)N[C@@H](CCN)C(=O)N[C@H](C(=O)N[C@@H](CCN)C(=O)N[C@H]1CCNC(=O)[C@H](COC)NC(=O)[C@H](CCN)NC(=O)[C@H](CCN)NC(=O)[C@H](CC(C)C)NC(=O)[C@@H](Cc2ccccc2)NC(=O)[C@H](CCN)NC1=O)[C@@H](C)O	2

Your task in this section: give MIC for each listed record.
1. CC[C@H](C)CCCCC(=O)N[C@@H](CCN)C(=O)N[C@H](C(=O)N[C@@H](CCN)C(=O)N[C@H]1CCNC(=O)[C@H](CC(C)C)NC(=O)[C@H](CCN)NC(=O)[C@H](CCN)NC(=O)[C@H](CC(C)C)NC(=O)[C@@H](Cc2ccccc2)NC(=O)[C@H](CCN)NC1=O)[C@@H](C)O (X1-[Dab]T[Dab][Dab][Dab][dF]L[Dab][Dab]L; lactam 4-C)
2. CC[C@H](C)CCCCC(=O)N[C@@H](CCN)C(=O)N[C@H](C(=O)N[C@@H](CCN)C(=O)N[C@H]1CCNC(=O)[C@H](CCCN)NC(=O)[C@H](CCN)NC(=O)[C@H](CCN)NC(=O)[C@H](CC(C)C)NC(=O)[C@@H](Cc2ccccc2)NC(=O)[C@H](CCN)NC1=O)[C@@H](C)O

Reply:
1: 2; 2: 4

Your task in this section: give MIC for each listed record.
1. CC[C@H](C)CCCCC(=O)N[C@@H](CCN)C(=O)N[C@H](C(=O)N[C@@H](CCN)C(=O)N[C@H]1CCNC(=O)[C@H](C(C)(C)O)NC(=O)[C@H](CCN)NC(=O)[C@H](CCN)NC(=O)[C@H](CC(C)C)NC(=O)[C@@H](Cc2ccccc2)NC(=O)[C@H](CCN)NC1=O)[C@@H](C)O
2. CC[C@H](C)CCCCC(=O)N[C@@H](CCN)C(=O)N[C@H](C(=O)N[C@@H](CCN)C(=O)N[C@H]1CCNC(=O)[C@H](CCN)NC(=O)[C@H](CCN)NC(=O)[C@H](CCN)NC(=O)[C@H](CC(C)C)NC(=O)[C@@H](Cc2ccccc2)NC(=O)[C@H](CCN)NC1=O)[C@@H](C)O
3. CC[C@H](C)CCCCC(=O)N[C@@H](CCN)C(=O)N[C@H](C(=O)N[C@@H](CCN)C(=O)N[C@H]1CCNC(=O)[C@H](C(C)C)NC(=O)[C@H](CCN)NC(=O)[C@H](CCN)NC(=O)[C@H](CC(C)C)NC(=O)[C@@H](Cc2ccccc2)NC(=O)[C@H](CCN)NC1=O)[C@@H](C)O
4. CC[C@H](C)CCCCC(=O)N[C@@H](CCN)C(=O)N[C@H](C(=O)N[C@@H](CCN)C(=O)N[C@H]1CCNC(=O)[C@H](CN)NC(=O)[C@H](CCN)NC(=O)[C@H](CCN)NC(=O)[C@H](CC(C)C)NC(=O)[C@@H](Cc2ccccc2)NC(=O)[C@H](CCN)NC1=O)[C@@H](C)O
5. CC[C@H](C)CCCCC(=O)N[C@@H](CCN)C(=O)N[C@H](C(=O)N[C@@H](CCN)C(=O)N[C@H]1CCNC(=O)[C@H](Cc2c[nH]cn2)NC(=O)[C@H](CCN)NC(=O)[C@H](CCN)NC(=O)[C@H](CC(C)C)NC(=O)[C@@H](Cc2ccccc2)NC(=O)[C@H](CCN)NC1=O)[C@@H](C)O

Reply:
8
16
4
1
4

Your task in this section: give MIC for each listed record.
1. CC[C@H](C)CCCCC(=O)N[C@@H](CCN)C(=O)N[C@H](C(=O)N[C@@H](CCN)C(=O)N[C@H]1CCNC(=O)[C@H](CCO)NC(=O)[C@H](CCN)NC(=O)[C@H](CCN)NC(=O)[C@H](CC(C)C)NC(=O)[C@@H](Cc2ccccc2)NC(=O)[C@H](CCN)NC1=O)[C@@H](C)O
2. CC[C@H](C)CCCCC(=O)N[C@@H](CCN)C(=O)N[C@H](C(=O)N[C@@H](CCN)C(=O)N[C@H]1CCNC(=O)[C@H]([C@@H](C)OC)NC(=O)[C@H](CCN)NC(=O)[C@H](CCN)NC(=O)[C@H](CC(C)C)NC(=O)[C@@H](Cc2ccccc2)NC(=O)[C@H](CCN)NC1=O)[C@@H](C)O

Reply:
[2, 8]

---

# Tested on: Klebsiella pneumoniae
# assay summary: Antibacterial activity against Carbapenem-resistant Klebsiella pneumoniae FADD1-KP032 clinical isolates assessed as reduction in bacterial growth by broth microdilution method
# Assay type: functional
recorded endpoint: MIC (µg/mL)
One number for each entry, in µg/mL.

Use the examples below as a reference point.
compound	target of assay	experimental result
CC[C@H](C)CCCCC(=O)N[C@@H](CCN)C(=O)N[C@H](C(=O)N[C@@H](CCN)C(=O)N[C@H]1CCNC(=O)[C@H]([C@@H](C)OC)NC(=O)[C@H](CCN)NC(=O)[C@H](CCN)NC(=O)[C@H](CC(C)C)NC(=O)[C@@H](Cc2ccccc2)NC(=O)[C@H](CCN)NC1=O)[C@@H](C)O	Klebsiella pneumoniae	2
CC[C@H](C)CCCCC(=O)N[C@@H](CCN)C(=O)N[C@H](C(=O)N[C@@H](CCN)C(=O)N[C@H]1CCNC(=O)[C@H](CCSC)NC(=O)[C@H](CCN)NC(=O)[C@H](CCN)NC(=O)[C@H](CC(C)C)NC(=O)[C@@H](Cc2ccccc2)NC(=O)[C@H](CCN)NC1=O)[C@@H](C)O	Klebsiella pneumoniae	2

Your task in this section: give MIC for each listed record.
1. CC[C@H](C)CCCCC(=O)N[C@@H](CCN)C(=O)N[C@H](C(=O)N[C@@H](CCN)C(=O)N[C@H]1CCNC(=O)[C@H](C(C)N=[N+]=[N-])NC(=O)[C@H](CCN)NC(=O)[C@H](CCN)NC(=O)[C@H](CC(C)C)NC(=O)[C@@H](Cc2ccccc2)NC(=O)[C@H](CCN)NC1=O)[C@@H](C)O (some centres not stated)
2. CC[C@H](C)CCCCC(=O)N[C@@H](CCN)C(=O)N[C@H](C(=O)N[C@@H](CCN)C(=O)N[C@H]1CCNC(=O)[C@H]([C@H](C)O)NC(=O)[C@H](CCN)NC(=O)[C@H](CCN)NC(=O)[C@H](CC(C)C)NC(=O)[C@@H](Cc2ccccc2)NC(=O)[C@H](CCN)NC1=O)[C@@H](C)O
3. CC[C@H](C)CCCCC(=O)N[C@@H](CCN)C(=O)N[C@H](C(=O)N[C@@H](CCN)C(=O)N[C@H]1CCNC(=O)[C@H](CC(=O)O)NC(=O)[C@H](CCN)NC(=O)[C@H](CCN)NC(=O)[C@H](CC(C)C)NC(=O)[C@@H](Cc2ccccc2)NC(=O)[C@H](CCN)NC1=O)[C@@H](C)O
4. CC[C@H](C)CCCCC(=O)N[C@@H](CCN)C(=O)N[C@H](C(=O)N[C@@H](CCN)C(=O)N[C@H]1CCNC(=O)[C@H](CCCNC(=N)N)NC(=O)[C@H](CCN)NC(=O)[C@H](CCN)NC(=O)[C@H](CC(C)C)NC(=O)[C@@H](Cc2ccccc2)NC(=O)[C@H](CCN)NC1=O)[C@@H](C)O
5. CC[C@H](C)CCCCC(=O)N[C@@H](CCN)C(=O)N[C@H](C(=O)N[C@@H](CCN)C(=O)N[C@H]1CCNC(=O)[C@H](Cc2c[nH]cn2)NC(=O)[C@H](CCN)NC(=O)[C@H](CCN)NC(=O)[C@H](CC(C)C)NC(=O)[C@@H](Cc2ccccc2)NC(=O)[C@H](CCN)NC1=O)[C@@H](C)O

Reply:
1: 2; 2: 2; 3: 32; 4: 32; 5: 16

---

# System: Klebsiella pneumoniae
# assay summary: Antibacterial activity against Carbapenem-resistant Klebsiella pneumoniae BM1 clinical isolates assessed as reduction in bacterial growth by broth microdilution method
# Assay type: functional
recorded endpoint: MIC (mg/L)
Numbers only, in mg/L.

structure smiles	measurement unit	MIC
CC[C@H](C)CCCCC(=O)N[C@@H](CCN)C(=O)N[C@H](C(=O)N[C@@H](CCN)C(=O)N[C@H]1CCNC(=O)[C@H](CCSC)NC(=O)[C@H](CCN)NC(=O)[C@H](CCN)NC(=O)[C@H](CC(C)C)NC(=O)[C@@H](Cc2ccccc2)NC(=O)[C@H](CCN)NC1=O)[C@@H](C)O	mg/L	2
CC[C@H](C)CCCCC(=O)N[C@@H](CCN)C(=O)N[C@H](C(=O)N[C@@H](CCN)C(=O)N[C@H]1CCNC(=O)[C@H](Cc2ccccc2)NC(=O)[C@H](CCN)NC(=O)[C@H](CCN)NC(=O)[C@H](CC(C)C)NC(=O)[C@@H](Cc2ccccc2)NC(=O)[C@H](CCN)NC1=O)[C@@H](C)O	mg/L	2
CC[C@H](C)CCCCC(=O)N[C@@H](CCN)C(=O)N[C@H](C(=O)N[C@@H](CCN)C(=O)N[C@H]1CCNC(=O)[C@H](Cc2ccc(O)cc2)NC(=O)[C@H](CCN)NC(=O)[C@H](CCN)NC(=O)[C@H](CC(C)C)NC(=O)[C@@H](Cc2ccccc2)NC(=O)[C@H](CCN)NC1=O)[C@@H](C)O	mg/L	1

Your task in this section: give MIC for each listed record.
1. CC[C@H](C)CCCCC(=O)N[C@@H](CCN)C(=O)N[C@H](C(=O)N[C@@H](CCN)C(=O)N[C@H]1CCNC(=O)[C@H](C(C)(C)O)NC(=O)[C@H](CCN)NC(=O)[C@H](CCN)NC(=O)[C@H](CC(C)C)NC(=O)[C@@H](Cc2ccccc2)NC(=O)[C@H](CCN)NC1=O)[C@@H](C)O
2. CC[C@H](C)CCCCC(=O)N[C@@H](CCN)C(=O)N[C@H](C(=O)N[C@@H](CCN)C(=O)N[C@H]1CCNC(=O)[C@H]([C@H](C)O)NC(=O)[C@H](CCN)NC(=O)[C@H](CCN)NC(=O)[C@H](CC(C)C)NC(=O)[C@@H](Cc2ccccc2)NC(=O)[C@H](CCN)NC1=O)[C@@H](C)O

Reply:
[1, 1]
